target: hMrgpMRGPRX2 (Homo sapiens); construct: expressed in transfected cells; assay: FLIPR intracellular calcium mobilization, antagonist activity in recombinant hMrgpMRGPRX2 expressing cells; type: cell-based; conditions: read-out: Human MrgprX2 Antagonist pIC50 (converted)
Sequence (Q96LB1 whole entry): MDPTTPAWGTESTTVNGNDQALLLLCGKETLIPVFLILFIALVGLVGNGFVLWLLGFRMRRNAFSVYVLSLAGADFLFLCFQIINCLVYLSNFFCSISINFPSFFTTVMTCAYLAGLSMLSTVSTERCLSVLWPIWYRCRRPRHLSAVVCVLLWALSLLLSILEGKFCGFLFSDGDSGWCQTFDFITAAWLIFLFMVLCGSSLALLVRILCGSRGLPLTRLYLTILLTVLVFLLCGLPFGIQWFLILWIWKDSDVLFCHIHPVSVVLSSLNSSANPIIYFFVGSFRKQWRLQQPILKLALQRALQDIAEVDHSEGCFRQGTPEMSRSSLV
Criterion: IC50 strictly under 1000 nM. Met: 1. Not met: -1.

| molecule | group-label |
| --- | --- |
| CCN(C[C@@H](O)C(F)(F)F)C(=O)Nc1cnc(Oc2cccc(F)c2C#N)cn1 | 1 |
| CC1(C)CC1C(=O)Nc1ccc(-c2cccc(F)c2F)cn1 (stereo not drawn) | 1 |
| CC(C)C(=O)Nc1ccc(N(C)c2ccccc2)cn1 | -1 |
| CC1(C)C(C(=O)Nc2ccc(CN3CCCC3)cn2)C1(C)C | -1 |
| CCN(C[C@@H](O)C(F)(F)F)C(=O)Nc1cnc(Oc2ccc(F)cc2)cn1 | 1 |
| CCN(C[C@@H](O)C(F)(F)F)C(=O)Nc1cnc(Oc2ccc(F)cc2C(F)(F)F)cn1 | 1 |

Now for another entry.
Input: is_below(IC50, 1000 nM) for COCCOc1ccc(NC(=O)C2C(C)(C)C2(C)C)nc1 ?
Output: -1
